Reference source: patent US11236129B2

- Format: physicochemical
- experimental-context: pH 7.8
Residues, ends and D or L forms follow the SMILES beside them.

compound	solubility
CC[C@H](C)[C@H](NC(=O)[C@H](Cc1c[nH]c2ccccc12)NC(=O)[C@H](CCC(=O)O)NC(=O)[C@H](Cc1ccc(O)cc1)NC(=O)[C@H](CC(C)C)NC(=O)[C@H](CC(=O)O)NC(=O)[C@H](C)NC(=O)[C@@H]1CCCN1C(=O)[C@@H](NC(=O)[C@@H](NC(=O)[C@@H](NC(=O)[C@H](CCSC)NC(=O)[C@@H](NC(C)=O)C(C)C)C(C)C)[C@@H](C)O)[C@@H](C)CC)C(=O)N[C@@H](CCCNC(=N)N)C(=O)N[C@@H](CCCNC(=N)N)C(N)=O [SEQ ID NO: 17] (Ac-VMVTIPADLYEWIRR-NH2)	> 10 mM
CC[C@H](C)[C@H](NC(C)=O)C(=O)N[C@@H](CCSC)C(=O)N[C@H](C(=O)N[C@H](C(=O)N[C@H](C(=O)N1CCC[C@H]1C(=O)N[C@@H](C)C(=O)N[C@@H](CC(=O)O)C(=O)N[C@@H](CC(C)C)C(=O)N[C@@H](Cc1c[nH]c2ccccc12)C(=O)N[C@@H](CC(=O)O)C(=O)N[C@@H](Cc1c[nH]c2ccccc12)C(=O)N[C@H](C(=O)N[C@@H](CC(N)=O)C(=O)N[C@@H](CCCCN)C(N)=O)[C@@H](C)CC)[C@@H](C)CC)[C@@H](C)O)C(C)C [SEQ ID NO: 3] (Ac-IMVTIPADLWDWINK-NH2)	≥ 0.01 mM

====

- method-notes: Isoelectric point, log D and log P (SiriusT3)
- Format: physicochemical
- experimental-context: octanol/ISA water; read-out: logP
Residues, ends and D or L forms follow the SMILES beside them.

molecule	logP
CC[C@H](C)[C@H](NC(=O)[C@H](Cc1c[nH]c2ccccc12)NC(=O)[C@H](CCC(=O)O)NC(=O)[C@H](Cc1ccc(O)cc1)NC(=O)[C@H](CC(C)C)NC(=O)[C@H](CC(=O)O)NC(=O)[C@H](C)NC(=O)[C@@H]1CCCN1C(=O)[C@@H](NC(=O)[C@@H](NC(=O)[C@@H](NC(=O)[C@H](CCSC)NC(=O)[C@@H](NC(C)=O)C(C)C)C(C)C)[C@@H](C)O)[C@@H](C)CC)C(=O)N[C@@H](CCCNC(=N)N)C(=O)N[C@@H](CCCNC(=N)N)C(N)=O [SEQ ID NO: 17] (Ac-VMVTIPADLYEWIRR-NH2)	-0.44

====

- Type: physicochemical
- experimental-context: pH 7.8
Residues, ends and D or L forms follow the SMILES beside them.
Measured solubility of individual entries

molecule	solubility
CC[C@H](C)[C@H](NC(=O)[C@@H](NC(=O)[C@@H](NC(=O)[C@H](Cc1c[nH]cn1)NC(=O)[C@@H](NC(C)=O)C(C)C)C(C)C)[C@@H](C)O)C(=O)N1CCC[C@H]1C(=O)N[C@@H](C)C(=O)N[C@@H](CCC(=O)O)C(=O)N[C@@H](CC(C)C)C(=O)N[C@@H](Cc1c[nH]c2ccccc12)C(=O)N[C@@H](CCC(=O)O)C(=O)N[C@@H](Cc1c[nH]c2ccccc12)C(=O)N[C@H](C(=O)N[C@@H](CCCNC(=N)N)C(=O)N[C@@H](CCCNC(=N)N)C(N)=O)C(C)C [SEQ ID NO: 111] (Ac-VHVTIPAELWEWVRR-NH2)	< 0.05 mM
CC[C@H](C)[C@H](NC(C)=O)C(=O)N[C@@H](Cc1c[nH]cn1)C(=O)N[C@H](C(=O)N[C@H](C(=O)N[C@H](C(=O)N1CCC[C@H]1C(=O)N[C@@H](C)C(=O)N[C@@H](CC(=O)O)C(=O)N[C@@H](CC(C)C)C(=O)N[C@@H](Cc1c[nH]c2ccccc12)C(=O)N[C@@H](CC(=O)O)C(=O)N[C@@H](Cc1c[nH]c2ccccc12)C(=O)N[C@H](C(=O)N[C@@H](CCC(=O)O)C(=O)N[C@@H](CCCCN)C(N)=O)[C@@H](C)CC)[C@@H](C)CC)[C@@H](C)O)C(C)C [SEQ ID NO: 11] (Ac-IHVTIPADLWDWIEK-NH2)	> 10 mM
